test system: Calu-3; assay: drug sensitivity score (DSS) for viability; higher = more toxic; extreme values may be limits of the assay; conditions: 72 h
REPORTED ENDPOINT: drug sensitivity score

COMPOUND: Cc1cc(C2CCCCC2)n(O)c(=O)c1
REPORTED ENDPOINT: drug sensitivity score
RESULT NUMBER: 3.6
//
COMPOUND: CCNC(=O)/C=C/c1cccc(Br)c1 [cinromide]
REPORTED ENDPOINT: drug sensitivity score
RESULT NUMBER: 0
//
COMPOUND: CCc1c(O)cc(O)c(C(=O)c2ccc(OCCN3CCOCC3)c(OC)c2)c1CC(=O)N(CCOC)CCOC
REPORTED ENDPOINT: drug sensitivity score
RESULT NUMBER: 5.4
//
COMPOUND: CCC(=O)O[C@H](CC(=O)O)C[N+](C)(C)C [levocarnitine-propionate]
REPORTED ENDPOINT: drug sensitivity score
RESULT NUMBER: 0.2
//
COMPOUND: Oc1cc(Cl)ccc1Oc1ccc(Cl)cc1Cl
REPORTED ENDPOINT: drug sensitivity score
RESULT NUMBER: 0
//
COMPOUND: O=C(CN1CCN(Cc2ccc3c(c2)OCO3)CC1)N1c2ccccc2Sc2ccccc21
REPORTED ENDPOINT: drug sensitivity score
RESULT NUMBER: 0

====

test system: U2OS; assay: cell viability relative to DMSO; higher = less toxic; conditions: 72 h; 10000 nM
We begin with a simple list: items and their reported cell viability.

COMPOUND: COc1ccc(Cl)cc1C(=O)NCCc1ccc(C(=O)O)cc1 [meglitinide]
ASSAY TARGET: U2OS
cell viability / %: 99.6

COMPOUND: Cc1cc(C)c(N)c(C#Cc2cccc(F)c2)n1
ASSAY TARGET: U2OS
cell viability / %: 90.9

COMPOUND: CCc1cnn2c(NCc3ccc[n+]([O-])c3)cc(N3CCCC[C@H]3CCO)nc12 [dinaciclib]
ASSAY TARGET: U2OS
cell viability / %: 5.4

COMPOUND: Clc1cccc(Cl)c1NC1=NCCN1 [clonidine]
ASSAY TARGET: U2OS
cell viability / %: 98.5

COMPOUND: CCn1c(=O)[nH]c2cc(Cl)c(Cl)cc21 [DCEBIO]
ASSAY TARGET: U2OS
cell viability / %: 97

COMPOUND: Cn1ccc2cc(NC(=O)Nc3cccnc3)ccc21
ASSAY TARGET: U2OS
cell viability / %: 100

COMPOUND: Nc1nc(NCCNc2ncc(-n3ccnc3)c(-c3ccc(Cl)cc3Cl)n2)ccc1[N+](=O)[O-]
ASSAY TARGET: U2OS
cell viability / %: 110

COMPOUND: CC[C@H](C)n1cc(C)c2c(C(=O)NCc3c(C)cc(C)[nH]c3=O)cc(-c3ccc(N4CCNCC4)nc3)cc21
ASSAY TARGET: U2OS
cell viability / %: 91.7

COMPOUND: COc1cc(C(=O)N2CCOCC2)cc(OC)c1OC [trimetozine]
ASSAY TARGET: U2OS
cell viability / %: 96.6

====

tested on: Caco-2; assay: cell viability relative to DMSO; higher = less toxic; settings: 72 h; 1 nM
REPORTED ENDPOINT: cell viability

COMPOUND: CCCCC/C=C\C/C=C\CCCCCCCC(=O)NCCCC(=O)O [GABA-linoleamide]
ASSAY TARGET: Caco-2
REPORTED ENDPOINT: cell viability
RESULT: 96.9%
//
COMPOUND: CC(=O)[C@@]12O[C@](C)(c3ccccc3)O[C@@H]1C[C@H]1[C@@H]3CCC4=CC(=O)CC[C@]4(C)[C@H]3CC[C@@]12C [algestone-acetophenide]
ASSAY TARGET: Caco-2
REPORTED ENDPOINT: cell viability
RESULT: 104%
//
COMPOUND: C[C@@]1(O)[C@H](O)[C@@H](CO)O[C@H]1n1ccc(N)nc1=O
ASSAY TARGET: Caco-2
REPORTED ENDPOINT: cell viability
RESULT: 93%
//
COMPOUND: N[C@H](C(=O)O)[C@H](O)c1ccc(O)c(O)c1
ASSAY TARGET: Caco-2
REPORTED ENDPOINT: cell viability
RESULT: 95.4%
//
COMPOUND: CCN(CC)CCCCNc1ncc2cc(-c3cc(OC)cc(OC)c3)c(NC(=O)NC(C)(C)C)nc2n1
ASSAY TARGET: Caco-2
REPORTED ENDPOINT: cell viability
RESULT: 102%
//
COMPOUND: Cc1cc(-c2nc(-c3ccc(OC(F)(F)F)cc3)no2)nn1Cc1ccnc(N2CCN(C3CC3)CC2)c1
ASSAY TARGET: Caco-2
REPORTED ENDPOINT: cell viability
RESULT: 99.4%
//
COMPOUND: O=C(N/N=C/c1ccccc1O)c1ccccc1O
ASSAY TARGET: Caco-2
REPORTED ENDPOINT: cell viability
RESULT: 97%
//
COMPOUND: COc1ccc(/C=C\c2cc(OC)c(OC)c(OC)c2)cc1OP(=O)(O)O
ASSAY TARGET: Caco-2
REPORTED ENDPOINT: cell viability
RESULT: 104%
//
COMPOUND: CCOC(=O)Nc1ccc2c(c1)N(C(=O)CN(C)C)c1ccccc1CC2
ASSAY TARGET: Caco-2
REPORTED ENDPOINT: cell viability
RESULT: 106%
//
COMPOUND: N#Cc1ccc(N2N=C3c4ccc(C(=O)O)cc4CC[C@@H]3[C@@H]2C2CCCC2)cc1Cl
ASSAY TARGET: Caco-2
REPORTED ENDPOINT: cell viability
RESULT: 92%

====

tested on: Vero E6; test: cell viability relative to DMSO; higher = less toxic; conditions: 72 h; 1 nM
Listed next: entries and their corresponding cell viability.

COMPOUND: COC(=O)C1=C(C)NC(C)=C(C(=O)OC2CCCN(Cc3ccccc3)C2)C1c1cccc([N+](=O)[O-])c1 (stereo unspecified)
UNITS: %
cell viability: 102
//
COMPOUND: O=C(NCc1ccccn1)Nc1nnc(-c2ccco2)o1
UNITS: %
cell viability: 94.5
//
COMPOUND: CC(C)(COP(=O)(O)OP(=O)(O)OC[C@H]1O[C@@H](n2cnc3c(N)ncnc32)[C@H](O)[C@@H]1OP(=O)(O)O)[C@@H](O)C(=O)NCCC(=O)NCCS
UNITS: %
cell viability: 108
//
COMPOUND: CNC(=O)[C@H]1O[C@@H](n2cnc3c(NCc4cccc(I)c4)ncnc32)[C@H](O)[C@@H]1O
UNITS: %
cell viability: 103
//
COMPOUND: CC(C)(C)NCC(O)c1cc(Cl)c(N)c(Cl)c1 (stereo unspecified)
UNITS: %
cell viability: 95.3
//
COMPOUND: COc1cc2ncnc(Nc3ccc(F)c(Cl)c3)c2cc1NC(=O)/C=C/CN1CCCCC1
UNITS: %
cell viability: 99.6

====

system: Caco-2; assay: cell viability relative to DMSO; higher = less toxic; settings: 72 h; 10 nM
Where a name gives a salt, the structure may show the parent alone.
REPORTED ENDPOINT: cell viability (%)

MOLECULE: CNC(=O)COC(=O)NCCC1CCN(c2cccc(C)n2)CC1
REPORTED ENDPOINT: cell viability
RESULT NUMBER: 101
--
MOLECULE: Nc1ncnc2c1ncn2[C@@H]1O[C@H](C[C@@H](N)CC[C@H](N)C(=O)O)[C@@H](O)[C@H]1O
REPORTED ENDPOINT: cell viability
RESULT NUMBER: 95.5
--
MOLECULE: Oc1cc(O)c2c(c1)O[C@H](c1ccc(O)c(O)c1)[C@H](O)[C@H]2c1c(O)cc(O)c2c1O[C@H](c1ccc(O)c(O)c1)[C@H](O)C2
REPORTED ENDPOINT: cell viability
RESULT NUMBER: 102
--
MOLECULE: COc1cc2ncnc(Nc3ccc(F)c(Cl)c3)c2cc1NC(=O)/C=C/CN1CCCCC1
REPORTED ENDPOINT: cell viability
RESULT NUMBER: 89.6
--
MOLECULE: CC1(C)S[C@@H]2[C@H](NC(=O)[C@H](NC(=O)N3CCNC3=O)c3ccccc3)C(=O)N2[C@H]1C(=O)O
REPORTED ENDPOINT: cell viability
RESULT NUMBER: 93
--
MOLECULE: CN1[C@@H]2CC[C@H]1C[C@@H](OC(=O)C(CO)c1ccccc1)C2 (some centres undefined) [ATROPINE SULFATE]
REPORTED ENDPOINT: cell viability
RESULT NUMBER: 95
--
MOLECULE: FC(F)OC(F)(F)C(F)Cl (centres undefined)
REPORTED ENDPOINT: cell viability
RESULT NUMBER: 104
--
MOLECULE: CS(=O)(=O)c1ccc([C@@H](CC2CCCC2)C(=O)Nc2nccs2)cc1
REPORTED ENDPOINT: cell viability
RESULT NUMBER: 97.8
--
MOLECULE: O=c1[nH]cnc2ccccc12
REPORTED ENDPOINT: cell viability
RESULT NUMBER: 94.6
--
MOLECULE: CC(C)Cn1cnc2c(N)nc3ccccc3c21
REPORTED ENDPOINT: cell viability
RESULT NUMBER: 92.9
--
MOLECULE: CCN(CC)CCCCNc1ncc2cc(-c3cc(OC)cc(OC)c3)c(NC(=O)NC(C)(C)C)nc2n1
REPORTED ENDPOINT: cell viability
RESULT NUMBER: 105
--
MOLECULE: Cc1nc2ccc(-n3ncc(C(=O)c4cc5ccccc5[nH]4)c3N)cc2[nH]1
REPORTED ENDPOINT: cell viability
RESULT NUMBER: 94.5
--
MOLECULE: Cc1cc(N2CCCCC2)nc2ccccc12
REPORTED ENDPOINT: cell viability
RESULT NUMBER: 97.4
--
MOLECULE: Clc1cccc(Cl)c1NC1=NCCN1
REPORTED ENDPOINT: cell viability
RESULT NUMBER: 95.6
--
MOLECULE: O=C(O)[C@H](O)[C@@H](O)[C@H](O)[C@H](O)CO [sodium-gluconate]
REPORTED ENDPOINT: cell viability
RESULT NUMBER: 101
--
MOLECULE: COc1cc(C(=O)N2CCOCC2)cc(OC)c1OC
REPORTED ENDPOINT: cell viability
RESULT NUMBER: 105
--
MOLECULE: C[n+]1c2cc(N)ccc2cc2ccc(N)cc21
REPORTED ENDPOINT: cell viability
RESULT NUMBER: 91.1
--
MOLECULE: Cc1cc(C)c(CNC(=O)c2cc(-c3ccc(N4CCN(C)CC4)nc3)cc3c2c(C)cn3C(C)C)c(=O)[nH]1
REPORTED ENDPOINT: cell viability
RESULT NUMBER: 104
--
MOLECULE: O=c1oc(-c2ccc(C(F)(F)F)cc2)nn1Cc1cc(Cl)ccc1O
REPORTED ENDPOINT: cell viability
RESULT NUMBER: 94.7
